// reported binding signal per item
- target_entity: OsSMF1 (Oryza sativa, UniProt Q6ZLB0 1-436)
- Sequence: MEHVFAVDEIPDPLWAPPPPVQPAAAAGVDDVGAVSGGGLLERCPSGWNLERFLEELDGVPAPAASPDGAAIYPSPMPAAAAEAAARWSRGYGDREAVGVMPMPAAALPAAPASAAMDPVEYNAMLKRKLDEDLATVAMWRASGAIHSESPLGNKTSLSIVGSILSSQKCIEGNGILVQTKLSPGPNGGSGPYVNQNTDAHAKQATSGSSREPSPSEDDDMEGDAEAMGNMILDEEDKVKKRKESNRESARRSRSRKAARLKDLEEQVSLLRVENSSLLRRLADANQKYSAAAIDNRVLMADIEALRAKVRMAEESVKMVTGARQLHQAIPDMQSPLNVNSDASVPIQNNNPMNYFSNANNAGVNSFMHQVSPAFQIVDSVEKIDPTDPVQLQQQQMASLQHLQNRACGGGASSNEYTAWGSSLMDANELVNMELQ
- test: protein-binding microarray (RPBM); PBS, 2% BSA, 51.3 ng/ul salmon testes DNA, 50 uM zinc acetate, 200 nM TF, 25 C, 1 h; high values mean tight binding
- particulars: protein: recombinant; tags: N-terminal polyhistidine and DsRed monomer fusion (pET32a); chain copies: 2; label: CyDye5-dUTP incorporated in the synthesized complementary strand; 3' TTTTT single-stranded linker to array surface; dsDNA, one strand shown
Whole data set: some 39,000 sequences, median “fluorescence intensity (a.u.)” near 4,300, cut for the highest 2% near 39,000. Shown is part of a subset that was picked to be rich in the highest values.

Known results for sequences:
1) CCCACATGTCGGTCCAATTCTCCCTCCAGCCACTCCCGACCGGAGTCACCTAGTGCAG :: 3220 fluorescence intensity (a.u.)
2) GAGGAGTGGGAGGAAAATGAGTGGTGGGGAAAGGATAGGGCGGAGTCACCTAGTGCAG :: 4150 fluorescence intensity (a.u.)
3) GGCCGCGTAGGCGCCACATCAGCCAAAACCACCATCAAAACGGAGTCACCTAGTGCAG :: 4590 fluorescence intensity (a.u.)
4) GCCTTCCCTTCCTTCCTCTGCCAATGGCCGCGCGTCAGCCCGGAGTCACCTAGTGCAG :: 3390 fluorescence intensity (a.u.)
5) TGGCGCGACTGCTCGGGTCACCATAAATACGGGTAGGTGGCGGAGTCACCTAGTGCAG :: 3940 fluorescence intensity (a.u.)

Sure, the documented binding signal for `CCCGTGACGTGTCGGCATCGGAGGGCCCCTCGTCGGGGTCCGGAGTCACCTAGTGCAG` is 10200 fluorescence intensity (a.u.)

Sure, the documented binding signal for `CTCCGTGAGCCCTTCCTCCTCCGCTCCTCTCCTTTCCGCCCGGAGTCACCTAGTGCAG` is 15600 fluorescence intensity (a.u.)

Sure, the documented binding signal for `ACACTGCCACGTCAGCGCCACGTTAGCAAAACCGTCCTCCCGGAGTCACCTAGTGCAG` is 35500 fluorescence intensity (a.u.)

Sure, the documented binding signal for `CACGGACGCAAGGGGCCTGCTAAGCCTCTACAACGCAGCGCGGAGTCACCTAGTGCAG` is 41800 fluorescence intensity (a.u.)

Sure, the documented binding signal for `GATGTGCGATAGCAGAATGGTGCTAAGTGAGTCACATCGTCGGAGTCACCTAGTGCAG` is 3970 fluorescence intensity (a.u.)

Sure, the documented binding signal for `TTAGCCCTTCCTCTCCTGCTTCCGCCCTTCCATGGCAATGCGGAGTCACCTAGTGCAG` is 46700 fluorescence intensity (a.u.)

Sure, the documented binding signal for `GCCGATCCCCGAGGAGGGCGGCGACGTGGAAGGGGAGGGCCGGAGTCACCTAGTGCAG` is 4090 fluorescence intensity (a.u.)

Sure, the documented binding signal for `TTGCAGTGCCACCTCACCGCCACGTAGGATGATGACTAAGCGGAGTCACCTAGTGCAG` is 25800 fluorescence intensity (a.u.)

Sure, the documented binding signal for `AGTAAAAGGAGCCACGTAGGCGCCACGTCATCCAAAACCACGGAGTCACCTAGTGCAG` is 47600 fluorescence intensity (a.u.)

Sure, the documented binding signal for `AACCAGCCACGTAGGCGCCACGTCAGCCAAAACTGCTATCCGGAGTCACCTAGTGCAG` is 35900 fluorescence intensity (a.u.)
